Form field: Blackgrass plant response rating (one value per entry).
Test system: blackgrass (Alopecurus myosuroides)
Test: Test A postemergence
Format: in vivo
Conditions: 125 g ai/ha, postemergence; visual injury rating on 0 to 100 scale (0 no effect, 100 complete control), approx. 10 d
// no unit, no text: just the number

Below, each entry is followed by its recorded Blackgrass plant response rating result.
Cc1cc(C2CN(C)C(=O)C2C(=O)Nc2cccc(F)c2F)ccc1F (stereo not shown) [Compound 403]; 50
C=C(C)CN1CC(c2cccc(C(F)(F)F)c2)C(C(=O)Nc2ccccc2F)C1=O (stereo not shown) [Compound 481]; 0
Cc1cccc(NC(=O)C2C(=O)NCC2c2ccc(F)c(F)c2)c1F (stereo not shown) [Compound 409]; 10

Attention now shifts to the item below.
Recall and state the measured Blackgrass plant response rating for C=C(C)CN1CC(c2cccc(C(F)(F)F)c2)C(C(=O)Nc2cccc(F)c2F)C1=O (stereo not shown) [Compound 479] . 0

----------
We begin with a simple list: items and their reported plant injury at 250 g/ha.
Test system: corn (Zea mays)
Experiment: Test G Pre-Emergence Protocol
Type: in vivo
Conditions: Zea mays, pre-emergence, 312 h, 250 g ai/ha, evaluated after 13 days, read-out: Corn damage rating (100=total damage to plant; 0=no damage to plant)
All answers are understood in %, so give the number only.

These solved cases illustrate the format of a correct answer.
Cc1cncc(NC(=O)[C@@H]2C(=O)N(C)C[C@H]2c2ccc(C(F)(F)F)cc2)n1 (racemic) [Compound 1647]; 0
CN1C[C@@H](c2ccc(C(F)(F)F)cc2)[C@H](C(=O)Nc2nn[nH]n2)C1=O (racemic) [Compound 1612]; 0
Cc1cc(Cl)ncc1NC(=O)[C@@H]1C(=O)N(C)C[C@H]1c1ccc(C(F)(F)F)cc1 (racemic) [Compound 1578]; 10
CN1C[C@H](c2cccc(C(F)F)c2)[C@@H](C(=O)Nc2ccccc2F)C1=O (racemic) [Compound 1464]; 80

Hello, please tell me recorded plant injury at 250 g/ha for this one: CN1C[C@@H](c2cnc(Cl)c(Cl)c2)[C@H](C(=O)Nc2cccc(F)c2F)C1=O (racemic) [Compound 1487] 70

Please list plant injury at 250 g/ha recorded for the molecule CN1C[C@H](c2ccc(C(F)(F)F)cc2)[C@@H](C(=O)Nc2cnccc2[S+](C)[O-])C1=O (mixture of isomers) [Compound 1751] 0

----------
Test system: ragweed (common ragweed, Ambrosia elatior)
Experiment: Test A postemergence
Type: in vivo
Conditions: 500 g ai/ha, postemergence; visual injury, 0 to 100 scale (0 no effect, 100 complete control), approx. 10 d
REPORTED_PROPERTY: Plant response rating, Ragweed
Write the number on its own, no unit after it.

Examples from the recorded data:
CN1CC(c2cc(F)cc(F)c2)C(C(=O)Nc2ccc(F)c(F)c2F)C1=O (centres unmarked); 40
CN1CC(c2ccc(F)c(F)c2)C(C(=O)Nc2ccccc2C(F)(F)F)C1=O (centres unmarked); 20
Cc1cc(C2CNC(=O)C2C(=O)Nc2cccc(F)c2F)cs1 (racemic); 0
CCc1cc(C2CNC(=O)C2C(=O)Nc2ccccc2F)cs1 (racemic); 0
CCc1cc(C2CNC(=O)C2C(=O)Nc2cccc(F)c2F)cs1 (racemic); 40
O=C(Nc1ccccc1F)C1C(=O)N(CC2CC2)CC1c1cccc(C(F)(F)F)c1 (centres unmarked); 0
Cc1ccc([C@H]2CN(C)C(=O)[C@@H]2C(=O)Nc2ccccc2[S+](C)[O-])cc1Cl (single isomer, unassigned); 0

The record that follows has no Plant response rating, Ragweed shown yet.
Read off the recorded Plant response rating, Ragweed for CN1CC(c2cccc(F)c2)C(C(=O)Nc2cccc(F)c2F)C1=O (centres unmarked) 30
